SYSTEM: Protein arginine N-methyltransferase 5 (Homo sapiens)
Sequence (O14744 whole entry): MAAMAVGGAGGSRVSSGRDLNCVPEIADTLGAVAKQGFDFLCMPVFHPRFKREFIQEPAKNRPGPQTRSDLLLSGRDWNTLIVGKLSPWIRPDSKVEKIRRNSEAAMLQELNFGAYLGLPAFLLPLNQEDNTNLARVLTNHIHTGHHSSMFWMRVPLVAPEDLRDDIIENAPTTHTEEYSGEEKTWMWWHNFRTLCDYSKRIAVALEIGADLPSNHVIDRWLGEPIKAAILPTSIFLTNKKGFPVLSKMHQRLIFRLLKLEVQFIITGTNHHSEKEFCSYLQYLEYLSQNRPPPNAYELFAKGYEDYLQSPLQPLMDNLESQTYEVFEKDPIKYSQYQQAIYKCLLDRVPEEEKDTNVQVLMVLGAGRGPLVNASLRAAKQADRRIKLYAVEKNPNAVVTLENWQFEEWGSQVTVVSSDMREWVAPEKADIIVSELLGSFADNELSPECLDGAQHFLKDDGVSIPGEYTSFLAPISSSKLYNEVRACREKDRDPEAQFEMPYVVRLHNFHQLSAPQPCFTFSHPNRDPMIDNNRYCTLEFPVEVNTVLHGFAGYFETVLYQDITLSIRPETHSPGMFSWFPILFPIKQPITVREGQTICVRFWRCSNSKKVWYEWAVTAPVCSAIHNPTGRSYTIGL
ASSAY COMMENT: Inhibition of PRMT5 in human Z138 cells assessed as decrease in di-methyl arginine levels after 96 hrs by Western blot method
pEC50: −log10 of the molar value.
OBSERVABLE: pEC50

Solved cases below.
COMPOUND: O=C(Cn1ccc2cnc(-c3ccnc(NCC(O)CN4CCc5ccccc5C4)c3)nc21)N1CCCC1 (centres undefined)
pEC50: > 7.00

COMPOUND: O=C(Cc1cccc2cccnc12)NCC(O)CN1CCc2ccccc2C1 (centres undefined)
pEC50: 5.00 to 6.00

COMPOUND: O=C1CN(c2ccc(CO)cc2)CCN1CC(O)CN1CCc2ccccc2C1 (centres undefined)
pEC50: 5.00 to 6.00

Kindly note the recorded pEC50 for "Cn1cnc2ccc(-c3cccc(OC[C@H](O)CN4CCc5ccccc5C4)c3)cc21" , which is 6.00 to 7.00

Cited source: ChEMBL document CHEMBL3879915
